The values you see were collected from patent US20120129870A1.

Consider the following compounds and their measured IC50 readings.
TEST TARGET: NPY Y2 receptor (Homo sapiens, UniProt P49146)
Sequence (P49146 1-381): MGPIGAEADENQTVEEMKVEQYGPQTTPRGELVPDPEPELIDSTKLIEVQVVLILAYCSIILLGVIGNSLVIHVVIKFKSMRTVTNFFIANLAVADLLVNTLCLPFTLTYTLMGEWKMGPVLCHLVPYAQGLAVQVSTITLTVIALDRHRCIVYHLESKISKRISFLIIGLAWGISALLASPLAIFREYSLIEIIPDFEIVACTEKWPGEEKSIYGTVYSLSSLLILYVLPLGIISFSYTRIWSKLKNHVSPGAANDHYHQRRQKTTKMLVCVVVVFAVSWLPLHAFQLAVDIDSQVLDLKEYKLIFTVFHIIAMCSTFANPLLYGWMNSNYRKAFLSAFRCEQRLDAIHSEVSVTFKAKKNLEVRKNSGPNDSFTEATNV
EXPERIMENT DESCRIPTION: Neuropeptide Y2 radioligand binding assay ([125I]PYY, KAN-Ts membranes)
ASSAY CONTEXT: KAN-Ts membranes endogenously expressing Y2, [125I]PYY (80 pM), 1 h at rt
Lab book: enter the figure in nM, no units written.

// solved cases for IC50 follow
O=C(Nc1ccc(N2CCN(C(c3ccccc3)c3ncco3)CC2)c(F)c1)C1CCC1 (stereo not shown) [Compound 73] : 180
N#Cc1cc(NC(=O)C2CC2)ccc1N1CCN(C(c2ccccc2)c2ncco2)CC1 (stereo not shown) [Compound 101] : 170
CCC(CC)C(=O)Nc1ccc(N2CCN(C(c3ccccc3)c3noc(CF)n3)CC2)c(F)c1 (stereo not shown) [Compound 235] : 30
CCC(CC)C(=O)Nc1ccc(N2CCN(C(c3ccccc3)c3ccccn3)CC2)c(F)c1 (stereo not shown) [Compound 33] : 18
Cc1ccccc1C(=O)Nc1ccc(N2CCN(C(c3ccccc3)c3ncco3)CC2)c(C#N)c1 (stereo not shown) [Compound 96] : 150
CCC(CC)C(=O)Nc1ccc(N2CCN(C(c3ccccc3)C3C(C)C3(Cl)Cl)CC2)c(F)c1 (stereo not shown) [Compound 115] : 450
CCC(CC)C(=O)Nc1ccc(N2CCN(C(c3ccccc3)c3nc4ccccc4s3)CC2)c(F)c1 (stereo not shown) [Compound 168] : 58
CCC(CC)C(=O)Nc1ccc(N2CCN(C(c3ccc(F)cc3)c3ccc(F)cc3)CC2)c(F)c1 [Compound 12] : 330
CCC(CC)C(=O)Nc1ccc(N2CCN(C(C#N)c3ccccc3C#N)CC2)c(F)c1 (stereo not shown) [Compound 136] : 9800
CCCC(=O)Nc1ccc(N2CCN(C(c3ccccc3)c3ncco3)CC2)c(F)c1 (stereo not shown) [Compound 100] : 1300

Query N#Cc1cc(NC(=O)C2CCCCC2)ccc1N1CCN(C(c2ccccc2)c2ncco2)CC1 (stereo not shown) [Compound 112] on NPY Y2 receptor (Homo sapiens, UniProt P49146); IC50 returned: 430

Test item CCC(CC)C(=O)Nc1ccc(N2CCN(C(c3ccc(C#N)cc3)c3ncco3)CC2)c(F)c1 (stereo not shown) [Compound 146] ; NPY Y2 receptor (Homo sapiens, UniProt P49146); reported IC50 was 260

The compound CCC(CC)C(=O)Nc1ccc(N2CCN(C(c3ccccc3)c3ncco3)CC2)c(F)c1 (single isomer, unassigned) [Compound 59] on NPY Y2 receptor (Homo sapiens, UniProt P49146): IC50 was 96
